system: Methicillin-Susceptible Staphylococcus aureus Isolates; test: MIC assay (NCCLS broth dilution), MSSA clinical isolates; format: cell-based; conditions: Staphylococcus aureus, MSSA isolate 1006, 24FEB06; read-out: Minimal Inhibitory Concentration
experimentalEndpoint: log10(MIC) (log10 of the value in µg/mL)
Record value = log10 of MIC given in µg/mL.

Example compounds with recorded log10(MIC):
CC(=O)NC[C@H]1CN(c2ccc(N3CCOCC3)c(F)c2)C(=O)O1	0.30
CN(C)c1ccc(O)c2c1C[C@H]1C[C@H]3[C@H](N(C)C)C(O)=C(C(N)=O)C(=O)[C@@]3(O)C(O)=C1C2=O	-0.92
CO[C@@H]1[C@@H](OC(N)=O)[C@@H](O)[C@H](Oc2ccc3c(O)c(NC(=O)c4ccc(O)c(CC=C(C)C)c4)c(=O)oc3c2C)OC1(C)C	-0.51
Cc1onc(-c2ccccc2)c1C(=O)N[C@@H]1C(=O)N2[C@@H]1SC(C)(C)[C@@H]2C(=O)O	-0.60

Okay, next one:
**Q:** // lookup log10(MIC) for `CN(C)[C@@H]1C(O)=C(C(N)=O)C(=O)[C@@]2(O)C(O)=C3C(=O)c4c(O)cccc4[C@@](C)(O)[C@H]3C[C@@H]12`
**A:** -0.30

----------
test system: Methicillin-Susceptible Staphylococcus aureus Isolates; experiment: MIC assay (NCCLS broth dilution), MSSA clinical isolates; type: cell-based; settings: Staphylococcus aureus, MSSA isolate 999, 22FEB06; read-out: Minimal Inhibitory Concentration
experimentalEndpoint: MIC

CN(C)[C@@H]1C(O)=C(C(N)=O)C(=O)[C@@]2(O)C(O)=C3C(=O)c4c(O)cccc4[C@@](C)(O)[C@H]3C[C@@H]12	> 16 µg/mL
CN(C)c1ccc(O)c2c1C[C@H]1C[C@H]3[C@H](N(C)C)C(O)=C(C(N)=O)C(=O)[C@@]3(O)C(O)=C1C2=O	0.12 µg/mL
CO[C@@H]1[C@@H](OC(N)=O)[C@@H](O)[C@H](Oc2ccc3c(O)c(NC(=O)c4ccc(O)c(CC=C(C)C)c4)c(=O)oc3c2C)OC1(C)C	0.15 µg/mL

For every listed record, write down its MIC.
1. CC(=O)NC[C@H]1CN(c2ccc(N3CCOCC3)c(F)c2)C(=O)O1
2. Cc1onc(-c2ccccc2)c1C(=O)N[C@@H]1C(=O)N2[C@@H]1SC(C)(C)[C@@H]2C(=O)O

**A:**
2 µg/mL
0.25 µg/mL

----------
system: Methicillin-Susceptible Staphylococcus aureus Isolates; assay: MIC assay (NCCLS broth dilution), MSSA clinical isolates; format: cell-based; details: Staphylococcus aureus, MSSA isolate 753, 22FEB06; read-out: Minimal Inhibitory Concentration
The label is Fulfilled for MIC below 0.3 µg/mL and Not fulfilled for MIC equal to or exceeding 0.3 µg/mL.

These solved cases illustrate the format of a correct answer.
CC(=O)NC[C@H]1CN(c2ccc(N3CCOCC3)c(F)c2)C(=O)O1 [LZD, linezolid]	Not fulfilled
CO[C@@H]1[C@@H](OC(N)=O)[C@@H](O)[C@H](Oc2ccc3c(O)c(NC(=O)c4ccc(O)c(CC=C(C)C)c4)c(=O)oc3c2C)OC1(C)C [NB, novobiocin]	Not fulfilled
Cc1onc(-c2ccccc2)c1C(=O)N[C@@H]1C(=O)N2[C@@H]1SC(C)(C)[C@@H]2C(=O)O [OX, oxacillin]	Fulfilled
CN(C)[C@@H]1C(O)=C(C(N)=O)C(=O)[C@@]2(O)C(O)=C3C(=O)c4c(O)cccc4[C@@](C)(O)[C@H]3C[C@@H]12 [TE, tetracycline]	Not fulfilled

We next turn to a different compound, shown below.
**Q:** Please indicate whether the reported MIC of CN(C)c1ccc(O)c2c1C[C@H]1C[C@H]3[C@H](N(C)C)C(O)=C(C(N)=O)C(=O)[C@@]3(O)C(O)=C1C2=O [MI, minocycline] is strictly below 0.3 µg/mL.
**A:** Fulfilled

----------
Give measured MIC for each item. Keep answers brief.
system: Unconfirmed Vancomycin-intermediate Staphylococcus epidermidis Isolates; test: MIC assay (NCCLS broth dilution), unconfirmed VISE isolates; format: cell-based; conditions: Staphylococcus epidermidis, Unconfirmed VISE isolate 2024, 09MAR06; read-out: Minimal Inhibitory Concentration
Answers are plain numbers, in µg/mL.

Please review the entries below; each comes with its answer.
CO[C@@H]1[C@@H](OC(N)=O)[C@@H](O)[C@H](Oc2ccc3c(O)c(NC(=O)c4ccc(O)c(CC=C(C)C)c4)c(=O)oc3c2C)OC1(C)C [NB, novobiocin]	5
CC(=O)NC[C@H]1CN(c2ccc(N3CCOCC3)c(F)c2)C(=O)O1 [LZD, linezolid]	1
CN(C)[C@@H]1C(O)=C(C(N)=O)C(=O)[C@@]2(O)C(O)=C3C(=O)c4c(O)cccc4[C@@](C)(O)[C@H]3C[C@@H]12 [TE, tetracycline]	2

Next compound, MIC to be filled in.
**Q:** Which MIC value belongs to CN(C)c1ccc(O)c2c1C[C@H]1C[C@H]3[C@H](N(C)C)C(O)=C(C(N)=O)C(=O)[C@@]3(O)C(O)=C1C2=O [MI, minocycline] ?
**A:** 0.25

----------
test system: Methicillin-Resistant Staphylococcus aureus Isolates; experiment: MIC assay (NCCLS broth dilution), MRSA clinical isolates; assay type: cell-based; settings: Staphylococcus aureus; 52 MRSA isolates; combinations at 2.5:1, given as NB/partner
Assign MIC50 to each entry below.
One number for each entry, in µg/mL.

# example entries with known answers
CN(C)c1ccc(O)c2c1C[C@H]1C[C@H]3[C@H](N(C)C)C(O)=C(C(N)=O)C(=O)[C@@]3(O)C(O)=C1C2=O [MI, minocycline]	0.12
CC(=O)NC[C@H]1CN(c2ccc(N3CCOCC3)c(F)c2)C(=O)O1 [LZD, linezolid]	2
CO[C@@H]1[C@@H](OC(N)=O)[C@@H](O)[C@H](Oc2ccc3c(O)c(NC(=O)c4ccc(O)c(CC=C(C)C)c4)c(=O)oc3c2C)OC1(C)C [NB, novobiocin]	0.15
Cc1onc(-c2ccccc2)c1C(=O)N[C@@H]1C(=O)N2[C@@H]1SC(C)(C)[C@@H]2C(=O)O [OX, oxacillin]	32

**Q:** Which MIC50 reading was recorded for the compound CN(C)[C@@H]1C(O)=C(C(N)=O)C(=O)[C@@]2(O)C(O)=C3C(=O)c4c(O)cccc4[C@@](C)(O)[C@H]3C[C@@H]12 [TE, tetracycline] ?
**A:** 0.5

----------
Record form. Attribute: MIC. Fill in for each entry.
tested on: Methicillin-Susceptible Staphylococcus aureus Isolates; assay: MIC assay (NCCLS broth dilution), MSSA clinical isolates; assay type: cell-based; settings: Staphylococcus aureus, MSSA isolate 1662, 03MAR06; read-out: Minimal Inhibitory Concentration
Answers are plain numbers, in µg/mL.

Recorded results for 4 molecules are shown here.
CO[C@@H]1[C@@H](OC(N)=O)[C@@H](O)[C@H](Oc2ccc3c(O)c(NC(=O)c4ccc(O)c(CC=C(C)C)c4)c(=O)oc3c2C)OC1(C)C [NB, novobiocin]	0.15
CC(=O)NC[C@H]1CN(c2ccc(N3CCOCC3)c(F)c2)C(=O)O1 [LZD, linezolid]	2
CN(C)c1ccc(O)c2c1C[C@H]1C[C@H]3[C@H](N(C)C)C(O)=C(C(N)=O)C(=O)[C@@]3(O)C(O)=C1C2=O [MI, minocycline]	0.06
Cc1onc(-c2ccccc2)c1C(=O)N[C@@H]1C(=O)N2[C@@H]1SC(C)(C)[C@@H]2C(=O)O [OX, oxacillin]	0.25

**Q:** Entry CN(C)[C@@H]1C(O)=C(C(N)=O)C(=O)[C@@]2(O)C(O)=C3C(=O)c4c(O)cccc4[C@@](C)(O)[C@H]3C[C@@H]12 [TE, tetracycline] : reported MIC = ?
**A:** 0.5

----------
test system: Methicillin-Resistant Staphylococcus aureus Isolates; experiment: MIC assay (NCCLS broth dilution), MRSA clinical isolates; type: cell-based; conditions: Staphylococcus aureus, MRSA isolate 1658, 03MAR06; read-out: Minimal Inhibitory Concentration
Threshold check on MIC: strictly below 0.5 µg/mL is YES; on or above 0.5 µg/mL is NO.

Cc1onc(-c2ccccc2)c1C(=O)N[C@@H]1C(=O)N2[C@@H]1SC(C)(C)[C@@H]2C(=O)O	NO
CN(C)c1ccc(O)c2c1C[C@H]1C[C@H]3[C@H](N(C)C)C(O)=C(C(N)=O)C(=O)[C@@]3(O)C(O)=C1C2=O	YES
CC(=O)NC[C@H]1CN(c2ccc(N3CCOCC3)c(F)c2)C(=O)O1	NO

**Q:** Here's an entry: `CO[C@@H]1[C@@H](OC(N)=O)[C@@H](O)[C@H](Oc2ccc3c(O)c(NC(=O)c4ccc(O)c(CC=C(C)C)c4)c(=O)oc3c2C)OC1(C)C` . Is its MIC below 0.5 µg/mL?
**A:** YES

----------
Consider the following compounds; for each one, report its MIC.
test system: Methicillin-Resistant Staphylococcus aureus Isolates; test: MIC assay (NCCLS broth dilution), MRSA clinical isolates; type: cell-based; settings: Staphylococcus aureus, MRSA isolate 2011, 24FEB06; read-out: Minimal Inhibitory Concentration
Numbers only, in µg/mL.

// known answers, use as guide
CO[C@@H]1[C@@H](OC(N)=O)[C@@H](O)[C@H](Oc2ccc3c(O)c(NC(=O)c4ccc(O)c(CC=C(C)C)c4)c(=O)oc3c2C)OC1(C)C	0.15
CN(C)c1ccc(O)c2c1C[C@H]1C[C@H]3[C@H](N(C)C)C(O)=C(C(N)=O)C(=O)[C@@]3(O)C(O)=C1C2=O	0.12
CC(=O)NC[C@H]1CN(c2ccc(N3CCOCC3)c(F)c2)C(=O)O1	4

**Q:** # lookup: MIC of `Cc1onc(-c2ccccc2)c1C(=O)N[C@@H]1C(=O)N2[C@@H]1SC(C)(C)[C@@H]2C(=O)O`
**A:** 32
